Tested on: mice
CONDITION_CONTEXT: mice, oral 150 mg/kg, 60 min before physostigmine
Each entry below lists one item and its recorded Sedated animals value.

Please review the following examples before continuing.
{"COMPOUND": "CC(C)(C)c1ccc(C(O)CCCN2CCC(C(O)(c3ccccc3)c3ccccc3)CC2)cc1 (stereo not shown)", "Sedated animals": "0/10"}
{"COMPOUND": "CCOC(=O)N1CCC(=C2c3ccc(Cl)cc3CCc3cccnc32)CC1", "Sedated animals": "1/10"}
{"COMPOUND": "O=C1Cc2ccccc2C(=C2CCNCC2)c2ccsc21 (racemic)", "Sedated animals": "3/10"}

Here is another compound to look at.
Prompt line: Give its Sedated animals value. Item: Clc1ccc2c(c1)CCc1cccnc1C2=C1CCNCC1 [DESLORATADINE, reference compound]
Response line: 0/10
